study_system: Phospholipase D1 (Homo sapiens, UniProt Q13393)
Sequence (Q13393 whole entry): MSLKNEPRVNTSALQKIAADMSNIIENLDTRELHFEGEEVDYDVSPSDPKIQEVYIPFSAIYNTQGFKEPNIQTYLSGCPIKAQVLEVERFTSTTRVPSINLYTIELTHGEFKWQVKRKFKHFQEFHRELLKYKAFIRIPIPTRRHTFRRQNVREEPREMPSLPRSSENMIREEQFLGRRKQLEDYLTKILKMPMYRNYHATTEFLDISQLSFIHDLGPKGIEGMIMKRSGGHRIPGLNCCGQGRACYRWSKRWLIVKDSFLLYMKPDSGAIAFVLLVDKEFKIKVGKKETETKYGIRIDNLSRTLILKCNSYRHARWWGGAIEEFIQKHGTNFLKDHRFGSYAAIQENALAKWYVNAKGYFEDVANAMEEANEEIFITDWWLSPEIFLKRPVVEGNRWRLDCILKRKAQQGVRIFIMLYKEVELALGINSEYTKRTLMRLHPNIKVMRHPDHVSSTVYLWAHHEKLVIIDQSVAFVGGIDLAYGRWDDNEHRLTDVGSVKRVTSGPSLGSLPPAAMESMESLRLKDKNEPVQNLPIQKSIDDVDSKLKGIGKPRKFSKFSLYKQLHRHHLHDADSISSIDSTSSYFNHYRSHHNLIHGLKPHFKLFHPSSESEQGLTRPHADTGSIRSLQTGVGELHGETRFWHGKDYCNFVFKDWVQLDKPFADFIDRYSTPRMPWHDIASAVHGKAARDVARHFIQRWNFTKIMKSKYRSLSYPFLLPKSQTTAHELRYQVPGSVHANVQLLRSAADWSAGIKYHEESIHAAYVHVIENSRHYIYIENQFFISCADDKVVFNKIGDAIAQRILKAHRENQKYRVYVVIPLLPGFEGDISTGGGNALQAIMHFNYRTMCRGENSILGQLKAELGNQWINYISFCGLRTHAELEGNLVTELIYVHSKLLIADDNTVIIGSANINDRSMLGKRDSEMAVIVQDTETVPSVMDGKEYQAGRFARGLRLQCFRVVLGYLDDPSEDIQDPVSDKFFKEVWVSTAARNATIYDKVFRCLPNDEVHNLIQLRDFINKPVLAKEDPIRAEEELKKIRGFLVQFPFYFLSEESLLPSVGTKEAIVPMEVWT
assay_info: Inhibition of PLD1 in human Calu1 cells
Format: cell-based
measured_attribute: IC50 (nM)
Unit nM implied. Number only.

{"columns": ["given_smiles", "u", "IC50"],
 "data": [
  ["C[C@@H](CN1CCC2(CC1)C(=O)NC[C@H]2c1ccc(F)cc1)NC(=O)c1ccc(F)cc1", "nM", 250],
  ["O=C(C#Cc1ccccc1)NCCN1CCC2(CC1)C(=O)NC[C@@H]2c1ccc(F)cc1", "nM", 6400],
  ["C[C@@H](CN1CCC2(CC1)C(=O)NC[C@@H]2c1ccc(F)cc1)NC(=O)c1cc2ccccc2[nH]1", "nM", 16]
]}

Query `O=C(NCCN1CCC2(CC1)C(=O)NC[C@H]2c1ccc(F)cc1)c1cc2ccccc2[nH]1` on Phospholipase D1 (Homo sapiens, UniProt Q13393); IC50 returned: 21

Query `C[C@@H](CN1CCC2(CC1)C(=O)NC[C@H]2c1ccc(F)cc1)NC(=O)c1ccc2ccccc2c1` on Phospholipase D1 (Homo sapiens, UniProt Q13393); IC50 returned: 820

Query `O=C(NCCN1CCC2(CC1)C(=O)NC[C@@H]2c1ccc(F)cc1)c1cc2ccccc2[nH]1` on Phospholipase D1 (Homo sapiens, UniProt Q13393); IC50 returned: 320
